Molecular target: Aurora2 kinase (Homo sapiens, UniProt O14965)
Construct: A complete recombinant Aurora2 enzyme; His tag (N); made in house; host or cells: E. coli
Assay: Aurora2 kinase radioactivity scintillation assay using nickel chelate (NuMA substrate)
Format: biochemical
Conditions: 10 μM; read-out: Aurora2 % inhib at 10 μM
endpointLabel: inhibition at 10 µM (%)

Examples with answers:
C=Cc1ccc(-c2n[nH]c3ccc(NS(=O)(=O)c4ccccc4S(C)(=O)=O)cc23)cc1 [Example 185] ... 94
CS(=O)(=O)c1ccccc1S(=O)(=O)Nc1ccc2[nH]nc(-c3ccccc3-c3ccccc3)c2c1 [Example 173] ... 77
O=S(=O)(/C=C/c1ccccc1)Nc1ccc2[nH]nc(-c3ccccc3)c2c1 [Example 126] ... 50

A: CS(=O)(=O)c1ccccc1S(=O)(=O)Nc1ccc2[nH]nc(/C=C/c3ccc(Cl)cc3)c2c1 [Example 76]
B: CS(=O)(=O)c1ccccc1S(=O)(=O)Nc1ccc2[nH]nc(-c3cccc4c3oc3ccccc34)c2c1 [Example 169]
For A and B , which recorded inhibition at 10 µM is lower? Output the label that corresponds to your choice.
B
(B: 52%, A: 99%)

P: O=S(=O)(Nc1ccc2[nH]nc(-c3ccccc3)c2c1)c1cccc(F)c1 [Example 6]
Q: CS(=O)(=O)c1ccccc1S(=O)(=O)Nc1ccc2[nH]nc(Sc3ccccc3)c2c1 [Example 88]
For P and Q , which recorded inhibition at 10 µM is lower? Output the label that corresponds to your choice.
Q
(Q: 55%, P: 95%)

a: Cc1ccc(-c2n[nH]c3ccc(NS(=O)(=O)c4ccccc4S(C)(=O)=O)cc23)cc1 [Example 164]
b: CS(=O)(=O)c1ccccc1S(=O)(=O)Nc1ccc2[nH]nc(-c3ccc(OCc4ccccc4)c(F)c3)c2c1 [Example 194]
Lab note: record which item had the higher inhibition at 10 µM, a or b . Output the label that corresponds to your choice.
a
(a: 91%, b: 58%)

I: CC(=O)Nc1ccccc1-c1n[nH]c2ccc(NS(=O)(=O)c3cccc(F)c3)cc12 [Example 47]
II: CS(=O)(=O)c1ccccc1S(=O)(=O)Nc1ccc2[nH]nc(/C=C/c3ccc(F)cc3)c2c1 [Example 74]
Lab note: record which item had the higher inhibition at 10 µM, I or II . Output the label that corresponds to your choice.
II

====

Biological target: human FAK (Homo sapiens, UniProt Q05397)
Construct: The complete cDNA of human FAK; made in house; host or cells: baculovirus expression system (vector pFastBac HTc)
Sequence (Q05397 whole entry): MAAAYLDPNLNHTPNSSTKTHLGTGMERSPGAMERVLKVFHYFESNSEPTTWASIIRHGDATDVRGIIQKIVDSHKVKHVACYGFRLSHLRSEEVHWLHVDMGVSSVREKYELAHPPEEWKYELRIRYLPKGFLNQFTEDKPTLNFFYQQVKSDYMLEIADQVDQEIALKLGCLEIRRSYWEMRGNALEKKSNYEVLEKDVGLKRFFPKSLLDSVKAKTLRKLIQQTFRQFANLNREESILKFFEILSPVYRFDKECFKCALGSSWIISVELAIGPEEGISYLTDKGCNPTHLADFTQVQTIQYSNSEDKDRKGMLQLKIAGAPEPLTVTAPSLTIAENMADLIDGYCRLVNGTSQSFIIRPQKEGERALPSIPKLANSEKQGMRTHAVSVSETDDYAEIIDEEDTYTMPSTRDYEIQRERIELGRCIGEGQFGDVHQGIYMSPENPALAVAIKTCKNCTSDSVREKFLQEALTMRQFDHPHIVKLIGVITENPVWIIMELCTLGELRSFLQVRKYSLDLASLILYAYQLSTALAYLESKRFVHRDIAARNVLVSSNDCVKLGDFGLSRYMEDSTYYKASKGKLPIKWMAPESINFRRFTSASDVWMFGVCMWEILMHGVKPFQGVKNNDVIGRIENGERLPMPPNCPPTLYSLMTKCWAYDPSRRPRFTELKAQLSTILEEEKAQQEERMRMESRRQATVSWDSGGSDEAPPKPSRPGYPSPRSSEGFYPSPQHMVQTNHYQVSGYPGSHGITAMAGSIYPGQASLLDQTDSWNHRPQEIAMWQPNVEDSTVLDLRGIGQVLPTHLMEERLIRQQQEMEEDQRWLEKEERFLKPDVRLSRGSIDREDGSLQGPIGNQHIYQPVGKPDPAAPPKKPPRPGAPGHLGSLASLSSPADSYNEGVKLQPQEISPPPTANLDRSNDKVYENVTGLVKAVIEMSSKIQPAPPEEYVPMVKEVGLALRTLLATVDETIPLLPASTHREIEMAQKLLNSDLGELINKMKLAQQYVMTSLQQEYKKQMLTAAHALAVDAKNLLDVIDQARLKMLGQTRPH
Test: FAK autophosphorylation inhibition, time resolved fluorescence (HTRF) assay
Assay type: biochemical
Conditions: 10 μM (values without asterisk); read-out: FAK % inhib at 10 μM
Protocol: The inhibitory activity of the compounds on FAK is determined by measuring the inhibition of the autophosphorylation of the enzyme using a time resolved fluorescence (HTRF) assay. […] The kinase activity is determined by incubating the enzyme (6.6 μg/ml) with various concentrations of test compound in a 50 mM Hepes buffer, pH=7.2, containing 10 mM MgCl2, 100 μM Na3VO4 and 15 μM d'ATP for 1 hour at 37° C. […] The long-lived signal specific for XL-665 is measured in a Packard Discovery plate counter. […]
endpointLabel: inhibition at 10 µM (%)

COc1ccc(-c2n[nH]c3ccc(NS(=O)(=O)c4ccccc4S(C)(=O)=O)cc23)c(OC)c1 ... 87

A: COC(=O)/C=C/c1n[nH]c2ccc(NS(=O)(=O)c3ccccc3S(C)(=O)=O)cc12
B: Cc1c(S(=O)(=O)Nc2ccc3[nH]nc(-c4ccccc4)c3c2)sc2ccc(Cl)cc12
C: CC(C)c1cc(C(C)C)c(S(=O)(=O)Nc2ccc3[nH]nc(-c4ccccc4)c3c2)c(C(C)C)c1
Order the records so the highest inhibition at 10 µM appears first and the lowest last. Reply: labels, ordered per the request.
A, C, B
(A: 98%, C: 48%, B: 0%)

====

Biological target: human FAK (Homo sapiens, UniProt Q05397)
Construct: The complete cDNA of human FAK; made in house; host or cells: baculovirus expression system (vector pFastBac HTc)
Test: FAK autophosphorylation inhibition, time resolved fluorescence (HTRF) assay
Assay type: biochemical
Conditions: 10 μM (values without asterisk); read-out: FAK % inhib at 10 μM
endpointLabel: inhibition at 10 µM (%)

O=S(=O)(Nc1ccc2[nH]nc(-c3ccccc3)c2c1)c1ccc(Cl)s1 [Example 135] ... 50

a: COc1ccccc1-c1n[nH]c2ccc(NS(=O)(=O)c3ccccc3S(C)(=O)=O)cc12 [Example 183]
b: CCCCS(=O)(=O)Nc1ccc2[nH]nc(-c3ccccc3)c2c1 [Example 129]
c: CS(=O)(=O)c1ccccc1S(=O)(=O)Nc1ccc2[nH]nc(-c3ccc(Oc4ccccc4)cc3)c2c1 [Example 171]
Order the records so the highest inhibition at 10 µM appears first and the lowest last. Reply: labels, ordered per the request.
a, b, c
(a: 82%, b: 46%, c: 25%)

====

Molecular target: Aurora2 kinase (Homo sapiens)
Construct: A complete recombinant Aurora2 enzyme; His tag (N); made in house; host or cells: E. coli
Sequence (O14965 1-403): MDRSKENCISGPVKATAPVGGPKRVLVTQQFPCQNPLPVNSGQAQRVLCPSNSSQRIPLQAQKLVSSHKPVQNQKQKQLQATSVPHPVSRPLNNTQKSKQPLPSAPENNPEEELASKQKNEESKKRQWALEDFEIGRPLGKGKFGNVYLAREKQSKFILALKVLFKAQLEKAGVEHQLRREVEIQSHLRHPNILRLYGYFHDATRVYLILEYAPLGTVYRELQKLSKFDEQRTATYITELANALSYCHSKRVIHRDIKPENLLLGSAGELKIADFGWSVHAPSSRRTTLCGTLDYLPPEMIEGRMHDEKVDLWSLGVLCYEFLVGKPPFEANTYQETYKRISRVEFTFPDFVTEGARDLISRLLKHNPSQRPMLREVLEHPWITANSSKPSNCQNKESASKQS
Assay: Aurora2 kinase radioactivity scintillation assay using nickel chelate (NuMA substrate)
Format: biochemical
Conditions: 10 μM; read-out: Aurora2 % inhib at 10 μM
endpointLabel: inhibition at 10 µM (%)

O=C(Nc1n[nH]c2ccc(NS(=O)(=O)c3cccc(F)c3)cc12)c1ccccc1 ... 99
COc1ccc(-c2n[nH]c3ccc(NS(=O)(=O)c4ccccc4)cc23)cc1 ... 90
N#Cc1cccc(S(=O)(=O)Nc2ccc3[nH]nc(-c4ccccc4)c3c2)c1 ... 95
CS(=O)(=O)c1ccccc1S(=O)(=O)Nc1ccc2[nH]nc(-c3cc(Br)cc(Br)c3)c2c1 ... 79
CC(C)S(=O)(=O)Nc1ccc2[nH]nc(-c3ccccc3)c2c1 ... 82
CC(=O)Nc1n[nH]c2ccc(NS(=O)(=O)c3cccc(F)c3)cc12 ... 92
CS(=O)(=O)c1ccccc1S(=O)(=O)Nc1ccc2[nH]nc(N)c2c1 ... 81
CS(=O)(=O)c1ccccc1S(=O)(=O)Nc1ccc2[nH]nc(-c3ccc(F)cc3F)c2c1 ... 92

====

Biological target: human FAK (Homo sapiens, UniProt Q05397)
Construct: The complete cDNA of human FAK; made in house; host or cells: baculovirus expression system (vector pFastBac HTc)
Test: FAK autophosphorylation inhibition, time resolved fluorescence (HTRF) assay
Format: biochemical
Settings: 10 μM (values without asterisk); read-out: FAK % inhib at 10 μM
endpointLabel: inhibition at 10 µM (%)

Examples with answers:
O=S(=O)(Nc1ccc2[nH]nc(-c3ccccc3)c2c1)c1cc(Cl)cc(Cl)c1 ... 53
CS(=O)(=O)c1ccccc1S(=O)(=O)Nc1ccc2[nH]nc(-c3ccc(F)cc3F)c2c1 ... 95
CS(=O)(=O)c1ccccc1S(=O)(=O)Nc1ccc2[nH]nc(-c3ccc(Br)cc3)c2c1 ... 61
CS(=O)(=O)c1ccccc1S(=O)(=O)Nc1ccc2[nH]nc(-c3cccc(OCc4ccccc4)c3)c2c1 ... 70
Nc1n[nH]c2ccc(NS(=O)(=O)c3c(F)cccc3F)cc12 ... 55

I: CS(=O)(=O)c1ccccc1S(=O)(=O)Nc1ccc2[nH]nc(-c3ccc(F)c(Cl)c3)c2c1
II: CN(C)c1cccc2c(S(=O)(=O)Nc3cccc(-c4n[nH]c5ccc(NS(=O)(=O)c6ccccc6S(C)(=O)=O)cc45)c3)cccc12
Lab note: record which item had the higher inhibition at 10 µM, I or II . Output the label that corresponds to your choice.
I

====

Target: human FAK (Homo sapiens, UniProt Q05397)
Construct: The complete cDNA of human FAK; made in house; host or cells: baculovirus expression system (vector pFastBac HTc)
Assay: FAK autophosphorylation inhibition, time resolved fluorescence (HTRF) assay
Assay type: biochemical
Conditions: 10 μM (values without asterisk); read-out: FAK % inhib at 10 μM
endpointLabel: inhibition at 10 µM (%)

CS(=O)(=O)c1ccccc1S(=O)(=O)Nc1ccc2[nH]nc(NCc3ccccc3)c2c1 ... 92
CS(=O)(=O)c1ccccc1S(=O)(=O)Nc1ccc2[nH]nc(-c3cc4ccccc4s3)c2c1 ... 86
CCc1ccc(-c2n[nH]c3ccc(NS(=O)(=O)c4ccccc4S(C)(=O)=O)cc23)cc1 ... 76
Nc1n[nH]c2ccc(NS(=O)(=O)c3c(Cl)cccc3Cl)cc12 ... 71
